Numbers sourced from patent US20120035214A1.

# Lookup of reported pIC50 keyed by entry
# System: Human recombinant renin (Homo sapiens, UniProt P00797)
# Sequence (P00797 67-406): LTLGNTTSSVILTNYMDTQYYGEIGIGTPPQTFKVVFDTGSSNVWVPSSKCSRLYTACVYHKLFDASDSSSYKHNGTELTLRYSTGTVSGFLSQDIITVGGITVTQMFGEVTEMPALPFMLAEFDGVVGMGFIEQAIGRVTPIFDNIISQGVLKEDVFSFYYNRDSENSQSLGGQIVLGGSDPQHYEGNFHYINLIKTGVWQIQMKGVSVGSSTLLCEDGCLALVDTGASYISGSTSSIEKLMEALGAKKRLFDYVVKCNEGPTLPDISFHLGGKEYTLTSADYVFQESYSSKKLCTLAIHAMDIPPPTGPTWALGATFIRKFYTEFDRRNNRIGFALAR
# Assay info: Inhibition of human recombinant renin (QFRET, buffer)
# Particulars: buffer: 50 mM MOPS pH 7.4, 100 mM NaCl, 0.002% Tween 20; 37° C., 3 hours
pIC50: −log10 of the molar value.
Measurement kind: pIC50

Molecule | Result
CC(=O)NCCc1ccccc1-c1onc([C@H]2CNCC[C@]2(F)c2ccc(F)c(F)c2)c1Br [Structure 81] | 10.28
Cc1cc(-c2ccccc2CCNC(=O)CC(F)(F)F)ccc1[C@H]1CNCC[C@@H]1c1cc(F)cc(F)c1 (racemic) [Structure 33] | 8.68
CC(=O)NCCc1ccccc1-c1onc([C@H]2CNCC[C@]2(OC(N)=O)c2ccc(F)c(F)c2)c1Br [Structure 118] | 9.66
O=C(CO)NCCc1ccccc1-c1ccc([C@H]2CNCC[C@@H]2c2ccc(F)c(F)c2)c(Cl)c1 (racemic) [Structure 43] | 9.59
COC(=O)NCCc1ccccc1-c1ccc([C@H]2CNCC[C@@H]2c2cc(F)cc(F)c2)c(C)c1 (racemic) [Structure 28] | 9.25
Fc1ccc([C@H]2CCNC[C@@H]2c2nnc(-c3cccc(Cl)c3Cl)n2C2CC2)cc1F [Structure 95] | 9.82
CC(=O)NCCc1ccccc1-c1ccc([C@H]2CNCC[C@@H]2c2cccnc2)c(Cl)c1 [Structure 13] | 8.82

----------
# System: Human recombinant renin (Homo sapiens, UniProt P00797)
# Assay info: Inhibition of human recombinant renin (QFRET, buffer)
# Particulars: buffer: 50 mM MOPS pH 7.4, 100 mM NaCl, 0.002% Tween 20; 37° C., 3 hours
# Lookup of reported IC50 keyed by entry

Compound | IC50 (nM)
COC[C@H](C)COCc1ccc([C@@]2(O)CCNC[C@@H]2c2ccc(-c3ccccc3CCNC(=O)CO)cc2C)cc1 [Structure 128] | 0.07
COC(=O)NCCc1ccccc1-c1ccc([C@H]2CNCC[C@@H]2c2ccc(F)c(F)c2)c(Cl)c1 (racemic) [Structure 42] | 0.14
CC(O)c1c([C@H]2CNCC[C@]2(O)c2ccc(F)c(F)c2)noc1-c1c(Cl)cccc1Cl (stereo partly shown) [Structure 78] | 1.8
COCC(F)(F)COCc1ccc([C@@]2(O)CCNC[C@@H]2c2ccc(-c3ccccc3CCNC(C)=O)cc2C)cc1 (racemic) [Structure 55] | 0.17
COC[C@H](C)COCc1ccc([C@@]2(O)CCNC[C@@H]2c2ccc(-c3ccccc3CCNC(C)=O)cc2C)cc1 [Structure 129] | 0.05
Cc1cc(-c2ccccc2OCc2cccnc2)ccc1[C@H]1CNCC[C@@H]1c1cc(F)cc(F)c1 (racemic) [Structure 38] | 150
CCOC(=O)NCCc1ccccc1-c1ccc([C@H]2CNCC[C@@H]2c2ccn(C)c(=O)c2)c(Cl)c1 (racemic) [Structure 63] | 16
CC(=O)NCCc1ccccc1-c1onc([C@H]2CNCC[C@@H]2c2ccc(OCCOc3c(Cl)cc(C)cc3Cl)cc2)c1C(C)O (stereo partly shown) [Structure 109] | 0.07
COCCCc1ccccc1-c1ccc([C@H]2CNCC[C@]2(O)c2cc(F)cc(F)c2)c(C)c1 (racemic) [Structure 39] | 4.2
CC(=O)NCCc1ccccc1-c1onc([C@H]2CNCC[C@]2(OCC(O)CO)c2ccc(F)c(F)c2)c1Br (stereo partly shown) [Structure 117] | 0.37
COCCCc1ccccc1-c1ccc([C@H]2CNCC[C@@H]2c2cccnc2)c(Cl)c1 (racemic) [Structure 11] | 2.7
CC(=O)NCCc1ccccc1-c1onc([C@H]2CNCC[C@]2(O)c2ccc(COCCOC(C)C)cc2)c1Br [Structure 115] | 6.5
O[C@]1(c2ccc(F)c(F)c2)CCNC[C@@H]1c1onc(-c2ccccc2Cl)c1Br [Structure 72] | 1.1
Cc1cc(-c2ccccc2CCNC(=O)C(F)(F)C(F)(F)F)ccc1[C@H]1CNCC[C@@H]1c1cc(F)cc(F)c1 (racemic) [Structure 32] | 23
COCC(=O)NCCc1ccccc1-c1ccc([C@H]2CNCC[C@@H]2c2ccn(C)c(=O)c2)c(Cl)c1 (racemic) [Structure 64] | 110
CC(=O)NCCc1ccccc1-c1ccc([C@@H]2CNCC[C@H]2c2cccnc2)c(C)c1 [Structure 5] | 1410
CC(=O)NCCc1ccccc1-c1onc([C@H]2CNCC[C@]2(O)c2ccc(F)c(F)c2)c1C(C)O (stereo partly shown) [Structure 85] | 4.3
C[C@H]1C[C@H](c2ccc(F)c(F)c2)[C@@H](c2nnc(-c3cccc(Cl)c3Cl)n2C2CC2)CN1 [Structure 93] | 0.14
Cc1ccccc1OCc1ccccc1-c1ccc([C@H]2CNCC[C@@H]2c2cc(F)cc(F)c2)c(C)c1 (racemic) [Structure 34] | 7.5
Cc1cc(-c2ccccc2CCNC(=O)OCc2ccccc2)ccc1[C@H]1CNCC[C@@H]1c1cc(F)cc(F)c1 (racemic) [Structure 25] | 18
COCCCc1ccccc1-c1ccc([C@H]2CNCC[C@]2(O)c2cccnc2)c(C)c1 (racemic) [Structure 40] | 47
Cc1cc(-c2ccccc2CCNC(=O)c2cnn(C)c2)ccc1[C@H]1CNCC[C@@H]1c1cc(F)cc(F)c1 (racemic) [Structure 24] | 73
COCCCc1ccccc1-c1ccc([C@H]2CNCC[C@@H]2c2ccccc2)c(C)c1 (racemic) [Structure 1] | 620
CC(=O)NCCc1cccnc1-c1onc([C@H]2CNCC[C@]2(O)c2ccc(F)c(F)c2)c1Br [Structure 97] | 10
CC(=O)NCCc1ccccc1-c1nnc([C@H]2CN[C@@H](C)C[C@@H]2c2ccc(F)c(F)c2)n1C1CC1 [Structure 94] | 1.5
COCCCc1ccccc1-c1ccc([C@H]2CNCC[C@@H]2c2cc(F)cc(F)c2)c(C)c1 (racemic) [Structure 8] | 4.3
CC(=O)NCCc1ccc(C(F)(F)F)cc1-c1ccc([C@H]2CNCC[C@@H]2c2ccc(F)c(F)c2)c(Cl)c1 (racemic) [Structure 46] | 0.78
Fc1ccc([C@@]2(F)CCNC[C@@H]2c2onc(-c3cccc(Cl)c3Cl)c2Br)cc1F [Structure 77] | 0.25
